# Experimental system: T1, 4H470-bH
# T1 chain: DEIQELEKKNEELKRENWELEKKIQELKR
# Test details: two-hybrid library CCNG1;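 note: natural log of median RNA to DNA barcode read ratio; higher means stronger binding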
Property label: interaction score

Binder	interaction score
DKIQELKKEIEELEREIWELEKKNQELKR [4H2568-bH]	-1.26
DEIQELEKKIEELKRENWELEKKNQELKR [4H344-bH]	0.944
DEIQELEKKIEELKRKIWELKKENQELER [4H363-bH]	0.465
DKNQELKKKIEELKRKNWELKKEIQELER [4H3961-bH]	1.3

P. DKIQELKKENEELERKNWELKKEIQELER [4H2745-bH]
Q. DKNQELKKKIEELKREIWELEKENQELER [4H3907-bH]
R. DENQELEKEIEELERKIWELKKKNQELKR [4H1072-bH]
S. DKIQELKKEIEELERKNWELKKENQELER [4H2619-bH]
Order by interaction score, ascending. List the labels, following the order given in the request.
R, Q, S, P
(R: -1.58, Q: -0.458, S: 0.724, P: 1.22)
